test: phase 1 first-in-human trial, food effect study (FES) PK
Assay type: in vivo
reportedConditions: human, plasma, po, 150 mg, healthy volunteers; single oral 150 mg; fasted; read-out: AUC(0-24) (geometric mean)

- compound: "Brc1cccc(-c2cc(-c3ccc4c(c3)OCO4)n[nH]2)c1 [anle138b]"
  AUC(0-t): "~896 ng·h/mL"

* * *

test: phase 1 first-in-human trial, multiple ascending dose (MAD) PK
Type: in vivo
reportedConditions: human, plasma, oral, 300 mg, healthy volunteers, fasted; 300 mg QD; Day 7; read-out: AUC(0-tau) (geometric mean)

- compound: "Brc1cccc(-c2cc(-c3ccc4c(c3)OCO4)n[nH]2)c1 [anle138b]"
  AUC: "~633 ng·h/mL"

* * *

test: phase 1 first-in-human trial, food effect study (FES) PK
Assay type: in vivo
reportedConditions: human, plasma, po, 150 mg, healthy volunteers; single oral 150 mg; fed; read-out: AUC(0-24) (geometric mean)
readoutName: AUC(0-t)

- compound: "Brc1cccc(-c2cc(-c3ccc4c(c3)OCO4)n[nH]2)c1 [anle138b]"
  reportedResult: "~641 ng·h/mL"

* * *

test: phase 1 study in patients with mild to moderate Parkinson's disease (PK, safety)
Format: in vivo, human
reportedConditions: human, plasma, oral, 300 mg, PD patients; Regimen B 300 mg QD (row prints fed, title fasted state); Day 7; tau 24 h; read-out: AUC(0-tau) (geometric mean)

- molecule: "Brc1cccc(-c2cc(-c3ccc4c(c3)OCO4)n[nH]2)c1 [anle138b]"
  AUC: "~722 ng·h/mL"

* * *

test: phase 1 first-in-human trial, single ascending dose (SAD) PK
Format: in vivo
reportedConditions: human, plasma, po, 200 mg, healthy volunteers, fasted; single oral 200 mg (Cohort C); read-out: Tmax (median)
readoutName: Tmax (h)

- compound: "Brc1cccc(-c2cc(-c3ccc4c(c3)OCO4)n[nH]2)c1 [anle138b]"
  readoutName: "Tmax"
  reportedResult: 1.5

* * *

test: phase 1 first-in-human trial, multiple ascending dose (MAD) PK
Format: in vivo
reportedConditions: human, plasma, oral, 200 mg, healthy volunteers, fasted; 200 mg QD; Day 7; read-out: AUC(0-tau) (geometric mean)
readoutName: AUC

- compound: "Brc1cccc(-c2cc(-c3ccc4c(c3)OCO4)n[nH]2)c1 [anle138b]"
  readoutName: "AUC"
  reportedResult: "~308 ng·h/mL"

* * *

test: phase 1 first-in-human trial, food effect study (FES) PK
Assay type: in vivo
reportedConditions: human, plasma, oral, 150 mg, 150 mg single dose; fed; read-out: AUC0-24 range
readoutName: AUC(0-t)

- compound: "Brc1cccc(-c2cc(-c3ccc4c(c3)OCO4)n[nH]2)c1 [anle138b]"
  readoutName: "AUC(0-t)"
  reportedResult: "378 to 1920 ng·h/mL"

* * *

test: phase 1 study in patients with mild to moderate Parkinson's disease (PK, safety)
Format: in vivo, human
reportedConditions: human, plasma, oral, 300 mg, PD patients; Regimen B 300 mg QD (row prints fed, title fasted state); Day 1; read-out: Cmax (geometric mean)

- compound: "Brc1cccc(-c2cc(-c3ccc4c(c3)OCO4)n[nH]2)c1 [anle138b]"
  Cmax: "~933 ng/mL"

* * *

test: 28-day toxicity study in rats
Assay type: in vivo
reportedConditions: rat, in vivo

- molecule: "Brc1cccc(-c2cc(-c3ccc4c(c3)OCO4)n[nH]2)c1 [anle138b]"
  NOAEL at 28 days [mg/kg]: 8.1
